OD450 values, listed per item
Experimental System: Hemagglutinin of influenza A/Japan/305/57 (H2N2), on inactivated whole virions (Influenza A virus A/Japan/305/1957 …, UniProt P03451 16-562)
Experiment Notes: ELISA, B cell culture supernatant on inactivated whole virions

{"Binder": "TCN-550 (5096_F06) (antibody, V domains shown) VH: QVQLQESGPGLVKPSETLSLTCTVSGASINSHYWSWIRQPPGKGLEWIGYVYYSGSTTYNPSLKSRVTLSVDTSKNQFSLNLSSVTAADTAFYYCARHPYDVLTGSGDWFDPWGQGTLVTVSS VL: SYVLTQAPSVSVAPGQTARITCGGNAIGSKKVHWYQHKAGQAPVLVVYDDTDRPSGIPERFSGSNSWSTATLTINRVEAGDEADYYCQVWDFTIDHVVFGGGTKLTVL", "Readout Unit": "OD450", "OD450": 0.06}
{"Binder": "TCN-534 (5249_B02) (antibody, V domains shown) VH: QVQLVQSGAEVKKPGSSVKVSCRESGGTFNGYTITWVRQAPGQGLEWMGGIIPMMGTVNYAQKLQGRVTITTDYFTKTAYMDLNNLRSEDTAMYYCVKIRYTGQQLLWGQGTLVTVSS VL: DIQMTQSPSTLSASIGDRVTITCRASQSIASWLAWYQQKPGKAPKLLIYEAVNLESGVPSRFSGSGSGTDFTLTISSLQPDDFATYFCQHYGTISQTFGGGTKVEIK", "Readout Unit": "OD450", "OD450": 2.56}
{"Binder": "TCN-546 (5089_L08) (antibody, V domains shown) VH: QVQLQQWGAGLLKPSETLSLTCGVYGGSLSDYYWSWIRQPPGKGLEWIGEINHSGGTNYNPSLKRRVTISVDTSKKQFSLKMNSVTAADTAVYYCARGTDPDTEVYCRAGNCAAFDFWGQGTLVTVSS VL: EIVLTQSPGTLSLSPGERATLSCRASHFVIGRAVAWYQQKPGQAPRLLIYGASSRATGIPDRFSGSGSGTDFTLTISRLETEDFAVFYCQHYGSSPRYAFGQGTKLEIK", "Readout Unit": "OD450", "OD450": 0.06}
{"Binder": "TCN-533 (5256_A17) (antibody, V domains shown) VH: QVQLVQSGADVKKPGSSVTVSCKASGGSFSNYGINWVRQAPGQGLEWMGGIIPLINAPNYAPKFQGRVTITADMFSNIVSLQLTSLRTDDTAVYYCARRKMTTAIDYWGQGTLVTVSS VL: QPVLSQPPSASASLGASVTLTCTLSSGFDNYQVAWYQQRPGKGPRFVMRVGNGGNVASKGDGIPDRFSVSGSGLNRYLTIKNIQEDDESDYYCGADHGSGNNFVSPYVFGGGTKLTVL", "Readout Unit": "OD450", "OD450": 1.1}
{"Binder": "TCN-521 (3280_D18) (antibody, V domains shown) VH: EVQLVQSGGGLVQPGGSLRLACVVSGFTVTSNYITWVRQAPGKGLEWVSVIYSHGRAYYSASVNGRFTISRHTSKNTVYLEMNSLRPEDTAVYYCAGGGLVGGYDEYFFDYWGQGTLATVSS VL: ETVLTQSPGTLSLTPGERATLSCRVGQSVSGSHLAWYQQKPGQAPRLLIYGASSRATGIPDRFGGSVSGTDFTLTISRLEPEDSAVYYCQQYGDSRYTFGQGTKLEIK", "Readout Unit": "OD450", "OD450": 3.1}
